# Tested on: Staphylococcus aureus
# assay-overview: Antimicrobial activity against methicillin-susceptible Staphylococcus aureus by microdilution method
# Type: functional
measured-endpoint: MIC
Write down the value, and be sure its unit follows.

[
  {
    "compound": "C/C(O)=C1\\C(=O)[C@H](CC(C)C)N(CC2=CCC3CC2C3(C)C)C1=O (some centres undefined)",
    "MIC": "1.6 µg/mL"
  },
  {
    "compound": "CCCCCCCCCCN1C(=O)/C(=C(/C)O)C(=O)[C@@H]1CC(C)C",
    "MIC": "0.4 µg/mL"
  },
  {
    "compound": "CN[C@H](CC(C)C)C(=O)N[C@H]1C(=O)N[C@@H](CC(N)=O)C(=O)N[C@H]2C(=O)N[C@H]3C(=O)N[C@H](C(=O)N[C@H](C(=O)O)c4cc(O)cc(O)c4-c4cc3ccc4O)[C@H](O)c3ccc(c(Cl)c3)Oc3cc2cc(c3O[C@@H]2O[C@H](CO)[C@@H](O)[C@H](O)[C@H]2O[C@H]2C[C@](C)(N)[C@H](O)[C@H](C)O2)Oc2ccc(cc2Cl)[C@H]1O",
    "MIC": "0.05 µg/mL"
  }
]

Would you kindly look at the next entry?
Data request: Look up MIC for this compound: C/C(O)=C1\C(=O)[C@H](CC(C)C)N(Cc2ccc(-c3ccccc3)cc2)C1=O
Data returned: 0.8 µg/mL
